Attribution: ChEMBL document CHEMBL4118285

# Test system: Staphylococcus epidermidis
# test_name: Antibacterial activity against methicillin-resistant Staphylococcus epidermidis 11C176 by broth microdilution method
# Format: functional
measurement_label: MIC (µg/mL)
Please respond with the number in µg/mL and leave the unit unwritten.

smiles_representation=CC[C@H]1OC(=O)[C@H](C)C(=O)[C@H](C)[C@@H](O[C@@H]2O[C@H](C)C[C@H](N(C)C)[C@H]2O)[C@](C)(OC)C[C@@H](C)C(=O)[C@H](C)[C@H]2N(CCCCc3cnc4ccccc4c3)C(=O)O[C@]12C obs_value=0.062

Form field MIC, entry CC[C@H]1OC(=O)[C@H](C)C(=O)[C@H](C)[C@@H](O[C@@H]2O[C@H](C)C[C@H](N(C)C)[C@H]2O)[C@](C)(OC)C[C@@H](C)C(=O)[C@H](C)[C@H]2N(CCCSc3cnc4ccccc4c3)C(=O)O[C@]12C : 0.125
